Record form. Attribute: folding stability dG. Fill in for each entry.
B1: EEHEE_rd4_0003 (parent)
chain: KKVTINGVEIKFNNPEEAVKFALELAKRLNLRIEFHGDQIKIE

# Variants of: B1
# Procedure details: folding stability dG (cDNA display proteolysis); higher = more stable
# Condition details: PBS, room temperature
Respond numerically; units are kcal/mol and should not be typed.

**Query** Return reported folding stability dG; argument: "E17G"
**Result** 2.2

**Query** folding stability dG lookup needed for "T4R" , thanks.
**Result** 2.18

**Query** What value of measured folding stability dG is listed for "I40Y" ?
**Result** 1.64

**Query** Record request: folding stability dG value, item "V3H"
**Result** 1.86

**Query** Report folding stability dG for "P15R" please.
**Result** 2.79

**Query** Would you mind telling me what folding stability dG value was observed for "T4A" ?
**Result** 2.02

**Query** Given the entry "L29R" , report its measured folding stability dG.
**Result** 1.43

**Query** Report folding stability dG for "T4L" please.
**Result** 2.95

**Query** I have this variant here, "A18F" , and I need its recorded folding stability dG.
**Result** 2.79

**Query** What does the data say about its folding stability dG? Entry: "V3A"
**Result** 1.67

**Query** # query: folding stability dG of entry "N13E"
**Result** 2.59

**Query** Name the reported folding stability dG value associated with the variant "K2Y"
**Result** 2.82

**Query** Given the variant "K27H" , what is its reported folding stability dG?
**Result** 2.48

**Query** Returns the measured folding stability dG for the input variant. Input: "V19W"
**Result** 2.98

**Query** Would you kindly share the measured folding stability dG for "K1Y" ?
**Result** 3.44

**Query** Dear colleague, I am looking for the recorded folding stability dG of the following variant: "K2M"
**Result** 2.83

**Query** Param item = "F21N" ; retrieve measured folding stability dG.
**Result** 1.27

**Query** Fill in: folding stability dG of "I5S" is ___
**Result** 1.46

**Query** I'd like to know its folding stability dG. The variant in question is "A26W"
**Result** 2.14

**Query** Return reported folding stability dG; argument: "I5N"
**Result** 1.47

**Query** Tell me the measured folding stability dG of "E24W" , please.
**Result** 3.15

**Query** Field request: folding stability dG | item: "Q39R"
**Result** 2.52

**Query** # lookup: folding stability dG of "I10D"
**Result** 1.28

**Query** Query: folding stability dG; subject: "E16F"
**Result** 2.69

**Query** What does the data say about its folding stability dG? Entry: "N13F"
**Result** 2.54

**Query** Need folding stability dG, item "K41L"
**Result** 2.86

**Query** Value lookup for folding stability dG; key = "E34M"
**Result** 2.47

**Query** # query: folding stability dG of entry "P15T"
**Result** 2.74

**Query** Could you tell me which folding stability dG is on file for "N14H" ?
**Result** 2.37

**Query** Entry "K20A" : reported folding stability dG = ?
**Result** 2.64

**Query** // returns reported folding stability dG for input "D38E"
**Result** 2.3

**Query** Reported folding stability dG for "A18K" : what is it?
**Result** 1.52

**Query** GET /values?readout=folding stability dG&item= "A18M"
**Result** 2.47

**Query** Need folding stability dG, item "F35L"
**Result** 2.2

**Query** For the variant shown here, "G37L" , give the reported folding stability dG.
**Result** 2.45

**Query** Report folding stability dG for "N6L" please.
**Result** 2.87

**Query** What value of folding stability dG has been recorded for this entry: "E43S"
**Result** 2.99

**Query** May I ask what folding stability dG has been recorded for "V19G" ?
**Result** 1.54

**Query** Recorded folding stability dG of "R28P" , please.
**Result** 1.29

**Query** Find the recorded folding stability dG belonging to "I10T" and report it.
**Result** 1.78

**Query** Which folding stability dG is reported for this variant? "D38Y"
**Result** 2.45

**Query** Given the entry "E24M" , report its measured folding stability dG.
**Result** 2.73

**Query** Sample "D38K" — what was its folding stability dG?
**Result** 2.15

**Query** Entry under review: "I5T" . Reported folding stability dG?
**Result** 1.59

**Query** So what's the measured folding stability dG for this one? "L29S"
**Result** 1.55

**Query** Recorded folding stability dG of "R32D" , please.
**Result** 1.56

meta.source: the MegaScale stability set (Tsuboyama et al. 2023)
